- Tested on: HB611 cells
- Assay notes: Cytotoxicity for HB611 cells (cell titer 96)
- Assay type: cell-based, human
- Cond: 50% death of HB611 cells; read-out: 50% Cytotoxic concentration for HB611 cells
- Protocol: 2×10^4 HB611 cells (recombinant human liver cancer cells producing HBV) were cultured in Dulbecco's ME medium containing 10% fetal bovine serum, streptomycin (100 μg/ml), penicillin (100 IU/ml), and Geneteicin (trade name of an antibiotic sold by Life Technologies, 0.2 mg/ml) at 37° C. […] Amounts of HBV-DNA in the cells were measured by Southern blotting method and inhibitory rates against HBV-DNA synthesis were determined. […]
Recorded endpoint: CC50 (µM)

- CC(C)(C)C(=O)OCOP(=O)(COCCn1cnc2c(N)ncnc21)OCOC(=O)C(C)(C)C [PMEA ester, PMEA bis(pivaloyloxymethyl ester), reference compound]: 18
